Attribution: patent US11357779B2

# procedure_details: Plasma concentration versus time of Compound I and metabolite Compound III in patients dosed QD or BID with Form B of Compound II plus fulvestrant
# Type: in vivo, human
# run_parameters: human, plasma, oral, 200 mg, 200 mg QD of Form B, Day 1, 6.0 h, Mean; read-out: Compound I Concentration
measurement_kind: concentration at 6 h
Provide the measurement as a number trailed by its unit.

Task: Looking for the measured concentration at 6 h of CC(C)N1CCN(c2ccc(Nc3ncc4cc5n(c4n3)C3(CCCCC3)CNC5=O)nc2)CC1 , can you help?
Result: 16.8 ng/mL

====

# procedure_details: Steady-state AUC0-24,ss, (AUC0-24,ss)/dose, half-life and time to steady state: Compound I versus palbociclib, ribociclib, abemaciclib
# Type: in vivo, human
# run_parameters: 500 mg QD of Form B of Compound II, Day 29
measurement_kind: (Mean AUC0-24,ss)/Dose (mg) (ng·h/mL/mg)
Report only the number, with the unit ng·h/mL/mg understood.

Task: Looking for the measured (Mean AUC0-24,ss)/Dose (mg) of CC(C)N1CCN(c2ccc(Nc3ncc4cc5n(c4n3)C3(CCCCC3)CNC5=O)nc2)CC1 , can you help?
Result: 1.21

====

# procedure_details: Plasma concentration versus time of Compound I and metabolite Compound III in patients dosed QD or BID with Form B of Compound II plus fulvestrant
# Assay type: in vivo, human
# run_parameters: human, plasma, oral, 650 mg, 650 mg QD of Form B, Day 1, 4.0 h, Mean; read-out: Compound I Concentration
measurement_kind: concentration at 4 h (ng/mL)
Report only the number, with the unit ng/mL understood.

Task: Looking for the measured concentration at 4 h of CC(C)N1CCN(c2ccc(Nc3ncc4cc5n(c4n3)C3(CCCCC3)CNC5=O)nc2)CC1 , can you help?
Result: 43.7

====

# procedure_details: Plasma concentration versus time of Compound I and metabolite Compound III in patients dosed QD or BID with Form B of Compound II plus fulvestrant
# Format: in vivo, human
# run_parameters: human, plasma, oral, 300 mg, 300 mg QD of Form B, Day 1, 1.0 h, Mean; read-out: Compound I Concentration
measurement_kind: concentration at 1 h (ng/mL)
Report only the number, with the unit ng/mL understood.

Task: Looking for the measured concentration at 1 h of CC(C)N1CCN(c2ccc(Nc3ncc4cc5n(c4n3)C3(CCCCC3)CNC5=O)nc2)CC1 [Compound I] , can you help?
Result: 22.9

====

# procedure_details: Plasma concentration versus time of Compound I and metabolite Compound III in patients dosed QD or BID with Form B of Compound II plus fulvestrant
# Format: in vivo, human
# run_parameters: human, plasma, oral, 200 mg, Cohort 8, 200 mg BID of Form B, Day 29, 0.0 h; read-out: Compound I Concentration, Min
measurement_kind: concentration at 0 h (ng/mL)
Report only the number, with the unit ng/mL understood.

Task: Looking for the measured concentration at 0 h of CC(C)N1CCN(c2ccc(Nc3ncc4cc5n(c4n3)C3(CCCCC3)CNC5=O)nc2)CC1 , can you help?
Result: 5.47

====

# procedure_details: Noncompartmental pharmacokinetic parameters (Cmax, Tmax, AUC, Racc) in QD and BID cohorts of Form B
# Format: in vivo, human
# run_parameters: human, plasma, oral, 200 mg, Compound I; 200 mg BID of Form B; Cohort 7; Day 1; read-out: Tmax (Median)
measurement_kind: Tmax
Provide the measurement as a number trailed by its unit.

Task: Looking for the measured Tmax of CC(C)N1CCN(c2ccc(Nc3ncc4cc5n(c4n3)C3(CCCCC3)CNC5=O)nc2)CC1 , can you help?
Result: 5 h
